biological target: P2X purinoceptor 4 (Homo sapiens)
Sequence (Q99571 whole entry): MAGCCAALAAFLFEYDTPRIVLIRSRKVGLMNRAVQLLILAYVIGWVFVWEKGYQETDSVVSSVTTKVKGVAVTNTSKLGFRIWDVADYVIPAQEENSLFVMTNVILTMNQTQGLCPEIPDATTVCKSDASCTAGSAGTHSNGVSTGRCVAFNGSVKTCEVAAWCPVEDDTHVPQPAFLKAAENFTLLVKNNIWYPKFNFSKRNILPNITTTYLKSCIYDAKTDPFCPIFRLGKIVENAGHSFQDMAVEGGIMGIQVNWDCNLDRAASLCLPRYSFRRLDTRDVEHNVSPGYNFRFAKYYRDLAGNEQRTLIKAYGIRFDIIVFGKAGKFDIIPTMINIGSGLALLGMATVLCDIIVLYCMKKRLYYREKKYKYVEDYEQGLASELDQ
pIC50: −log10 of the molar value.
quantity.kind: pIC50

# molecular.string, value
records = [
    ("COc1cc(C(C)C)c(Oc2cnc(N)nc2N)cc1I", "< 5.00"),
]

====

# reported IC50; entries follow
Biological target: P2X2/P2X3 heterotrimeric receptor (Homo sapiens, UniProt P56373+Q9UBL9)
Sequence (Q9UBL9 whole entry): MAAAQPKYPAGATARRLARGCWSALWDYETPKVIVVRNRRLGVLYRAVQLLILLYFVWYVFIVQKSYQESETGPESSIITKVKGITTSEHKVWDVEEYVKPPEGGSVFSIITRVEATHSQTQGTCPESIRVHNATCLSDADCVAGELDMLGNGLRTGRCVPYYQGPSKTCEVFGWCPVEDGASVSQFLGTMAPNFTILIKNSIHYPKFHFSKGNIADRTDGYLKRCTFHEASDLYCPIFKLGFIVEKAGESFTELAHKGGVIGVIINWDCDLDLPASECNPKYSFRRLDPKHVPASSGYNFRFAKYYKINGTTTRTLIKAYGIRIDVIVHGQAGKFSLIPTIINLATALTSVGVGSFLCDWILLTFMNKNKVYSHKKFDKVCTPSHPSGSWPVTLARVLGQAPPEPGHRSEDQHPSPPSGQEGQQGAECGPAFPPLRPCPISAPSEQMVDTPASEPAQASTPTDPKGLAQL
Sequence (P56373 whole entry): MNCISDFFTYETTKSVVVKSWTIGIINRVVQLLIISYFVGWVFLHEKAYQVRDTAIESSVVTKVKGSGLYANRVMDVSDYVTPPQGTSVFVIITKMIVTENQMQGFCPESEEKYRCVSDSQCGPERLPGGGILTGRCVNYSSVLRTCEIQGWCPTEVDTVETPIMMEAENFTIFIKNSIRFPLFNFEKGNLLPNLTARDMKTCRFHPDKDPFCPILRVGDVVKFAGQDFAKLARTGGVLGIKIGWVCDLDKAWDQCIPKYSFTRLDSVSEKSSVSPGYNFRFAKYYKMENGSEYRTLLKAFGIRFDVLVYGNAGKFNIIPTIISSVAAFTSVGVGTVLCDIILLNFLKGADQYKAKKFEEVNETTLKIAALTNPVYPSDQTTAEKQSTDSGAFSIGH
Assay: Antagonist activity at human recombinant P2X2/3 receptor expressed in human 1321N1 cells by FLIPR assay

# molecular.string, IC50
rows = [
    ("CCc1cc(OC)c(OC)cc1Oc1cnc(N)nc1N", "2000 nM"),
    ("COc1cc(Oc2cnc(N)nc2N)c(C(C)C)cc1-c1ccc(F)cc1", "7940 nM"),
    ("COc1cc(C(C)C)c(Oc2cnc(N)nc2N)cc1I", "79.4 nM"),
    ("COc1cc(C(C)C)c(Oc2cnc(N)nc2N)cc1C(C)C", "2000 nM"),
    ("COc1cc(C(C)C)c(Oc2cnc(N)nc2N)cc1S(C)(=O)=O", "1000 nM"),
    ("COc1cc(C(C)C)c(Oc2cnc(N)nc2N)cc1C", "398 nM"),
    ("COc1cc(Cc2cnc(N)nc2N)c(CC(C)C)cc1OC", "10000 nM"),
    ("COc1cc(C(C)C)c(Oc2cnc(N)nc2N)cc1-c1nnn[nH]1", "316 nM"),
    ("COc1cc(C(C)C)c(Oc2cnc(N)nc2N)cc1Br", "79.4 nM"),
    ("COc1cc(C(C)C)c(Oc2cnc(N)nc2N)cc1Cl", "100 nM"),
    ("COc1cc(C(=O)c2cnc(N)nc2N)c(C(C)C)cc1OC", "> 10000 nM"),
    ("COc1cc(C(C)C)c(Oc2cnc(N)nc2N)cc1C#N", "2510 nM"),
    ("COc1ccc(C(C)C)c(Oc2cnc(N)nc2N)c1", "158 nM"),
    ("COc1cc(C(C)C)c(Oc2cnc(N)nc2N)cc1-c1ccccc1", "2510 nM"),
    ("CCc1cc(Oc2cnc(N)nc2N)c(C(C)C)cc1OC", "158 nM"),
    ("COc1cc(Oc2cnc(N)nc2N)c(C(C)C)cc1I", "398 nM"),
    ("C#Cc1cc(Oc2cnc(N)nc2N)c(C(C)C)cc1OC", "12.6 nM"),
    ("CCc1cc(OC)c(OC)cc1CCc1cnc(N)nc1N", "> 10000 nM"),
    ("COc1cc(C(C)C)c(Oc2cnc(N)nc2N)cc1F", "1580 nM"),
    ("COc1cc(Cc2cnc(N)nc2N)c(C2CCC2)cc1OC", "> 10000 nM"),
    ("COc1cc(Cc2cnc(N)nc2N)c(C2CC2)cc1OC", "> 10000 nM"),
    ("CC(C)c1ccccc1Oc1cnc(N)nc1N", "2000 nM"),
    ("CCCc1cc(OC)c(OC)cc1Cc1cnc(N)nc1N", "> 10000 nM"),
]

====

Target: P2X2/P2X3 heterotrimeric receptor (Homo sapiens, UniProt P56373+Q9UBL9)
Sequence (Q9UBL9 whole entry): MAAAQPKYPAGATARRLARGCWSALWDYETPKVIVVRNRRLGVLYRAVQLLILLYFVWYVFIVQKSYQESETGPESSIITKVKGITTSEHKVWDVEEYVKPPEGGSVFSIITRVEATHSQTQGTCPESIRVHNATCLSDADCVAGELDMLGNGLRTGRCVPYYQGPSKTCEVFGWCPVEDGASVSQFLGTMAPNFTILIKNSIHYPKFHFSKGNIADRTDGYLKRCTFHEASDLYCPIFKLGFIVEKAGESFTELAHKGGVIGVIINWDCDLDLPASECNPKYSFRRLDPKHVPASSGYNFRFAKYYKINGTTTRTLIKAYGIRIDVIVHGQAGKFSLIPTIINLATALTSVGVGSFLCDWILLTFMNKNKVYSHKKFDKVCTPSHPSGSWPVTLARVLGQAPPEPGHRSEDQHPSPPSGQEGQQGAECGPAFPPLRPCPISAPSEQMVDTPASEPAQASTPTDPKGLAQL
Sequence (P56373 whole entry): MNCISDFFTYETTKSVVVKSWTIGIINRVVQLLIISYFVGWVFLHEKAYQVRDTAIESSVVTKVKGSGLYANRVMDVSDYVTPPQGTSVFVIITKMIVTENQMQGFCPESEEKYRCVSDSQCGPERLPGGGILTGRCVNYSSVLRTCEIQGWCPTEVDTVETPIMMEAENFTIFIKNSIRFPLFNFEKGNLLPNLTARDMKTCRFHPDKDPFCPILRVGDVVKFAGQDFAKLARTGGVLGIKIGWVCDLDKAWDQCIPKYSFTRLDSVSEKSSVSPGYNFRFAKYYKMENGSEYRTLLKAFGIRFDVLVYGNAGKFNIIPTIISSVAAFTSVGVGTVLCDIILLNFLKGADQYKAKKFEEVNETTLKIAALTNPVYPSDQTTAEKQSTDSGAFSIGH
Test: Antagonist activity at human recombinant P2X2/3 receptor expressed in human 1321N1 cells by FLIPR assay
pIC50: −log10 of the molar value.

# molecule, limit.sign, pIC50
records = [
    ("COc1cc(C(C)C)c(Oc2cnc(N)nc2N)cc1-c1ncc[nH]1", "=", 6.20),
    ("COc1cc(Oc2cnc(N)nc2N)c(C(C)C)cc1Br", "=", 6.50),
    ("COc1cc(C(C)C)c(Oc2cnc(N)nc2N)cc1C(N)=O", "=", 5.80),
    ("COc1cc(Cc2cnc(N)nc2N)c(C(C)(C)C)cc1OC", "<", 5.00),
    ("COc1cc(C)c(Cc2cnc(N)nc2N)cc1OC", "<", 5.00),
    ("COc1ccc(Oc2cnc(N)nc2N)c(C(C)C)c1", "=", 6.40),
    ("COc1cc(C(C)C)c(Oc2cnc(N)nc2N)cc1C(=O)O", "=", 6.50),
    ("COc1cc(Oc2cnc(N)nc2N)c(C(C)C)cc1C#N", "<", 5.00),
    ("CCc1cc(OC)c(OC)cc1Cc1cnc(N)nc1N", "<", 5.00),
    ("COc1cc(Cc2cnc(N)nc2N)c(C(C)C)cc1OC", "=", 5.70),
    ("COc1cc(C(C)C)c(C(O)c2cnc(N)nc2N)cc1OC (configuration not stated)", "<", 5.00),
    ("COc1cc(C(C)C)c(Oc2cnc(N)nc2N)cc1C1=NCCN1", "<", 5.00),
]

====

molecular target: UniProt:Q99572
Sequence (Q99572 whole entry): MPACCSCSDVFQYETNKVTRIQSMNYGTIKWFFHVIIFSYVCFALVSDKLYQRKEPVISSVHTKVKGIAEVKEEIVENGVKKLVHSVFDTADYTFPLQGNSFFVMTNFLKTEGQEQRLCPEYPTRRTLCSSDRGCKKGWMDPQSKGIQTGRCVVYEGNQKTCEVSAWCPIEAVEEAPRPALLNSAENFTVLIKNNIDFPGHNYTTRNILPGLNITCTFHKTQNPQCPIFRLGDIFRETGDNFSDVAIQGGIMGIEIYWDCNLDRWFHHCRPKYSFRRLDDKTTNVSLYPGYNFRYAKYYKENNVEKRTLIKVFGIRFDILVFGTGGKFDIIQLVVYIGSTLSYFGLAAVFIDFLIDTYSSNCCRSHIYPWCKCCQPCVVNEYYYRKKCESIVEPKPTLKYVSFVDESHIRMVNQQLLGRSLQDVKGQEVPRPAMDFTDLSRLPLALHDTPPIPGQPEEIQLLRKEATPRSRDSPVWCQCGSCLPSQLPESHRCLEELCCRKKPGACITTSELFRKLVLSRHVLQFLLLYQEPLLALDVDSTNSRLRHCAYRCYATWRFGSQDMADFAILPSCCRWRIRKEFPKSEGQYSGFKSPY
pIC50: −log10 of the molar value.

# molecular.string, assayed.system, pIC50
data = [
    ("COc1cc(C(C)C)c(Oc2cnc(N)nc2N)cc1I", "UniProt:Q99572", "< 5.00"),
]

====

assay: Inhibition of ML1 receptor

# molecular.string, Ki
rows = [
    ("COc1cc(C(C)C)c(Oc2cnc(N)nc2N)cc1I", "1 µM"),
]

Recorded values, source ChEMBL document CHEMBL1153301.
